# Test system: TTR (gene 7276)
# ASSAY_DETAILS: CCTE_GLTED_hTTR_0.125uM: CCTE's human Transthyretin (hTTR) Inhibition Assay, with 0.125uM TTR, Great Lakes Toxicology and Ecology Division (GLTED) Lab (AID 2284431);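 further: hits lower the fluorescence signal relative to DMSO baseline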
# Method: CCTE_GLTED_hTTR is a cell-free, single-readout assay designed to test the chemicals' ability to displace T4 from the human transthyretin (TTR) protein. TTR (at 0.125uM or 0.5uM) is incubated in presence of test chemical for 2 hours during which disrupting chemicals displace ANSA from the TTR protein. Results read fluorescence at 380 excitation and 475 emission.CCTE_GLTED_hTTR_0.125uM is the assay component measured from the CCTE_GLTED_hTTR assay. […]
The source made the active and inactive calls. How the source made its calls: active means hit-call score of the fitted dose curve at least 0.9, where 1 is the maximum; inactive means score below 0.9.
Provide the recorded AC50 for the entries that follow.

Sample records with AC50:
{"COMPOUND": "COC(=O)C(C)Oc1ccc(Oc2ccc(Cl)cc2Cl)cc1 (stereo unspecified)", "SYSTEM": "TTR (gene 7276)", "AC50": "1120 nM (active)"}
{"COMPOUND": "COP(=S)(OC)Oc1nc(Cl)c(Cl)cc1Cl", "SYSTEM": "TTR (gene 7276)", "AC50": "274 nM (active)"}
{"COMPOUND": "Cc1ccc(-c2c(Cl)nc(C#N)n2S(=O)(=O)N(C)C)cc1", "SYSTEM": "TTR (gene 7276)", "AC50": "94.6 nM (active)"}
{"COMPOUND": "C=CC1(C)OC(=O)N(c2cc(Cl)cc(Cl)c2)C1=O (stereo unspecified)", "SYSTEM": "TTR (gene 7276)", "AC50": "1680 nM (active)"}
{"COMPOUND": "Oc1ccccc1-c1ccccc1", "SYSTEM": "TTR (gene 7276)", "AC50": "14200 nM (active)"}

Switching to the query record.
What AC50 appears in the records for this compound with TTR (gene 7276)? Fc1ccc(Oc2ccnc3cc(Cl)cc(Cl)c23)cc1
2740 nM (active)
